B1: Intersectin-2, residues 1129 to 1183; numbered along this chain, Q9NZM3 (parent)
chain: VCQVIAMYDYAANNEDELSFSKGQLINVMNKDDPDWWQGEINGVTGLFPSNYVKM

# Variants of: B1
# TEST PROTOCOL: abundance fitness (aPCA) (normalised: wild type 0, dead -1); higher = more abundant; growth selection in yeast, the domain comes from the species named
# CONDITION DETAILS: Homo sapiens
PROPERTY LABEL: abundance fitness

N14I : -0.092
M7E : -0.057
I26F : -0.085
Q3P : -0.116
N30Q : 0.019
Y8W : -0.052
D9A : 0.019
Q38I : 0.105
L25Y : -0.115
F48G : -0.945
L18K : -0.647
G23K : -0.103
G46R : -0.318
A11W : -0.117
N27T : -0.043
F48C : -0.199
Q24S : -0.073
A11M : -0.053
K54N : -0.08
E17K : -0.089
D33T : -0.023
N30S : -0.028
M7D : 0.007
W36V : -0.052
L25P : -0.126
I26R : -0.951
C2Y : 0.022
E17V : -0.145
S19W : -0.313
F48Q : -0.778
F48N : -1.17
V4D : -0.511
P34I : -0.071
M29P : -0.496
V53G : -0.116
V4N : -0.688
L18P : -0.895
E40F : -0.142
N27V : -0.098
Y8M : -0.011
S21H : 0.082
A11F : -0.055
Q38T : -0.038
W37Q : -0.699
L47S : -0.011
K22G : -0.097
V1R : -0.228
A11V : -0.072
V53A : -0.071
V44G : 0.001
D35S : -0.035
E40G : -0.157
